Target: mouse TRPM3α2 (mTRPM3) ion channel (Mus musculus, UniProt J9SQF3)
Construct: expressed in transfected cells; host or cells: flip-in HEK293
Sequence (J9SQF3 1-1709 isoform J9SQF3-12): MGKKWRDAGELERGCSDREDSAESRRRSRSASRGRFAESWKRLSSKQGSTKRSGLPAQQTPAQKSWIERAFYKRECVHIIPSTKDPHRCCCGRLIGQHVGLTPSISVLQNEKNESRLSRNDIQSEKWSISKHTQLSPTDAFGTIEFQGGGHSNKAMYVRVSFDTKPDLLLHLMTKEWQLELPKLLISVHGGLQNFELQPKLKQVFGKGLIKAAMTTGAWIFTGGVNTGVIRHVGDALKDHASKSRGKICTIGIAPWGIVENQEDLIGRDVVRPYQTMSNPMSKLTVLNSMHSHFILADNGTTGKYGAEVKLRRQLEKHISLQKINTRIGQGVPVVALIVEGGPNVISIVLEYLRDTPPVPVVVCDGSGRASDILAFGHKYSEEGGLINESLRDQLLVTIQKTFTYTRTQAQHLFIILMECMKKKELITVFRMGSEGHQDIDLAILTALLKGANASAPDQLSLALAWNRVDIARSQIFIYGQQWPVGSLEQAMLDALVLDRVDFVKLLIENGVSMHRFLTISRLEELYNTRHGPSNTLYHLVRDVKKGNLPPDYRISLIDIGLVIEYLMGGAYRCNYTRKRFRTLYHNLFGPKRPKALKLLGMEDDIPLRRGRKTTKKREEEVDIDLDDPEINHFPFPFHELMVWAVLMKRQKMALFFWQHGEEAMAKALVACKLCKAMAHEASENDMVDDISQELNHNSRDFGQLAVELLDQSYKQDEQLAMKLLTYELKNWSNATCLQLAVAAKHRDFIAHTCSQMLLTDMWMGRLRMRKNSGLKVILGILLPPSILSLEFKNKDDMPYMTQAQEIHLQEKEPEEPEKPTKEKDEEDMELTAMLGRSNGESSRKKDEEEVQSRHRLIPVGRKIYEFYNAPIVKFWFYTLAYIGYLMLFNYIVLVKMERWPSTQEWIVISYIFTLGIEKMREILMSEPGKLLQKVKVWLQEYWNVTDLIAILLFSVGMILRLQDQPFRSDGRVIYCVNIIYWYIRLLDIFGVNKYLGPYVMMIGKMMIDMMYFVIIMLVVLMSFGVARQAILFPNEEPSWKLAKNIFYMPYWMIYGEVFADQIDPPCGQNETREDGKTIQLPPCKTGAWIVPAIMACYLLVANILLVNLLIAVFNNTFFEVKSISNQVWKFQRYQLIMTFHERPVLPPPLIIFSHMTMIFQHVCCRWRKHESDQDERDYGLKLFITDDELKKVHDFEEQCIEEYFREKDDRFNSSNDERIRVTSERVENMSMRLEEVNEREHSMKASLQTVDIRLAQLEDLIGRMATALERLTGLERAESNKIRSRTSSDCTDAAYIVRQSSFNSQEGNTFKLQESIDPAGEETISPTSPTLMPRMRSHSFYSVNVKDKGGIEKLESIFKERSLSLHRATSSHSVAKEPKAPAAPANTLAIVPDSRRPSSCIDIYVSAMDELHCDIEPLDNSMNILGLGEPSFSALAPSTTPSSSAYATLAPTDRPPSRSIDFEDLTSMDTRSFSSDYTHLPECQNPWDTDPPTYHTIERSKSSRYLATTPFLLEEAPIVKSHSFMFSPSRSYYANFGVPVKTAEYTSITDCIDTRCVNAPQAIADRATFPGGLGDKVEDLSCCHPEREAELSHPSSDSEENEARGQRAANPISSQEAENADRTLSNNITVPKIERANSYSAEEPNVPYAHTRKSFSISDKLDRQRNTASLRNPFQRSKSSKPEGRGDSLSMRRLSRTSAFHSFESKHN
Experiment: TRPM3 ion channel driven Ca2+ uptake, Fluo-4 AM assay, mTRPM3alpha2 overexpressing flip-in HEK293 cells stimulated with pregnenolone sulfate (50 μM)
Assay type: cell-based
Settings: mTRPM3 overexpressing HEK293 cells stimulated with pregnenolone sulfate (50 μM), activity ranges A, B, C
pIC50: −log10 of the molar value.
Reported pIC50 values for the following compounds.
quantity-name: pIC50

1. COc1ccc2nn(C)c(C(=O)NC(C)(CO)C(N)=O)c2c1 (single isomer, unassigned) [Cpd 172 - En2]
4.70 to 6.00
2. Cn1nc2ccc(OCc3ccccn3)cc2c1C(=O)NCC(O)CC(F)(F)F (single isomer, unassigned) [Cpd 245 - En2]
< 4.70
3. CC1CC(COc2ccc3nn(C)c(C(=O)NC(C)(CO)C(N)=O)c3c2)C1 (stereo not shown)
4.70 to 6.00
4. Cn1nccc1COc1ccc2nn(C)c(C(=O)NCC(C)(C)CO)c2c1
4.70 to 6.00
5. Cn1nc2ccc(OCc3ccccn3)cc2c1C(=O)NC(CO)Cc1ccccn1 (single isomer, unassigned) [Cpd 252 - En1]
< 4.70
6. O=C1NCCn2nc3ccc(OCc4ccccc4)cc3c21
< 4.70
7. CN1CC(NC(=O)c2c3cc(OCc4ccnn4C)ccc3nn2C)C(F)(F)C1 (stereo not shown)
< 4.70
8. Cc1ncsc1COc1ccc2nn(C)c(C(=O)NC3(CO)CCNC3=O)c2c1 (single isomer, unassigned) [Cpd 163 - En2]
4.70 to 6.00
9. Cc1ncsc1COc1ccc2nn(C)c(C(=O)NC3(C(N)=O)CCOCC3)c2c1
4.70 to 6.00
10. Cn1nc2ccc(OCc3ccccn3)cc2c1C(=O)NC1(CO)CC1
< 4.70
11. Cn1ccc(COc2ccc3nn(C)c(C(=O)NC(C)(CO)C(N)=O)c3c2)n1 (single isomer, unassigned) [Cpd 155 - En1]
< 4.70
12. Cn1nc2ccc(OCc3cccnc3C(F)(F)F)cc2c1C(=O)NC1(C(N)=O)COC1
4.70 to 6.00
13. Cn1nc2ccc(OCC3CC3)cc2c1C(=O)NCC1CC1
< 4.70
14. Cc1ncc(COc2ccc3nn(C)c(C(=O)NC(C)(CO)C(N)=O)c3c2)o1 (single isomer, unassigned) [Cpd 179 - En1]
4.70 to 6.00
15. Cn1nc2ccc(OCC3CCC3)cc2c1C(=O)N[C@@H](CO)C(N)=O
> 6.00
16. Cc1ncsc1COc1ccc2nn(C)c(C(=O)NC3CNCCC3(F)F)c2c1 (single isomer, unassigned) [Cpd 211 - En1]
4.70 to 6.00
17. Cn1nc2ccc(OCc3ccccc3F)cc2c1C(=O)NC1(C(N)=O)CCOC1 (single isomer, unassigned) [Cpd 166 - En2]
> 6.00
18. Cc1ncc(COc2ccc3nn(C)c(C(=O)NCC(F)F)c3c2)s1
4.70 to 6.00
19. Cn1nc2ccc(OCc3cccnc3C(F)(F)F)cc2c1C(=O)N[C@@H]1COC[C@@H]1O (single isomer, unassigned) [Cpd 010 - Dia1]
4.70 to 6.00
20. Cn1nc2ccc(OCc3ccccn3)cc2c1C(=O)NC(CO)CC(N)=O (single isomer, unassigned) [Cpd 240 - En1]
< 4.70
21. Cn1nc2ccc(OCc3ccccn3)cc2c1C(=O)NC(CO)c1ccc(F)cc1 (single isomer, unassigned) [Cpd 220 - En2]
< 4.70
22. Cn1nc2ccc(OCc3ccccn3)cc2c1C(=O)NC1CCNC1 (single isomer, unassigned) [Cpd 216 - En2]
4.70 to 6.00
23. Cc1ncsc1COc1ccc2nn(C)c(C(=O)NC(C)(CO)C(N)=O)c2c1 (single isomer, unassigned) [Cpd 151 - En1]
> 6.00
24. Cc1ccc(COc2ccc3nn(C)c(C(=O)NC4(CO)CCNC4=O)c3c2)cn1 (single isomer, unassigned) [Cpd 169 - En2]
> 6.00
25. C=C(Nc1cc(C(F)(F)F)cnc1O)c1c2cc(OCc3ccccn3)ccc2nn1C
< 4.70
26. Cc1ncsc1COc1ccc2nn(C)c(C(=O)NC3CCOCC3)c2c1
4.70 to 6.00
27. Cc1ncsc1COc1ccc2nn(C)c(C(=O)NC3(C(N)=O)CCOC3)c2c1 (single isomer, unassigned) [Cpd 170 -En2]
4.70 to 6.00
28. Cc1ncc(COc2ccc3nn(C)c(C(=O)NC4(CO)COC4)c3c2)s1
4.70 to 6.00
29. Cn1nc2ccc(OCc3ccccn3)cc2c1C(=O)NC1(CO)CC1(F)F (single isomer, unassigned) [Cpd 235 - En2]
4.70 to 6.00
30. CN1CCC(NC(=O)c2c3cc(OCc4cccnc4C(F)(F)F)ccc3nn2C)C1 (stereo not shown)
4.70 to 6.00
31. CN1CCC(NC(=O)c2c3cc(OCc4ccccc4)ccc3nn2C)C1 (stereo not shown)
4.70 to 6.00

Origin of measurements: patent US20250376461A1
